- assay-name: Cytotoxicity against human HEK293 cells assessed as reduction in cell viability incubated for 72 hrs by MTT assay
- Assay type: cell-based
endpoint-label: CC50 at 72 h

What value of measured CC50 at 72 h is listed for COc1ccc(/C=N/Nc2nc(-c3ccc(F)cc3)cs2)cc1Br ?
> 100 µM

* * *

- assay-target: Leucine--tRNA ligase (Mycobacterium tuberculosis (strain ATCC 25618 / H37Rv)) (UniProt P9WFV1)
- assay-name: Inhibition of Mycobacterium tuberculosis LeuRS expressed in Escherichia coli Rosetta (DE3) cells at 100 uM incubated for 30 mins followed by incubation with ATP, leucine, tRNA, iPPase for 10 mins and measured after 30 mins by BIOMOL Green reagent based plate reader analysis relative to control
inhibition vs 10%: at or above is met, below is not met.

CCOC(=O)c1sc(N/N=C/c2cccc(O)c2)nc1C : not met
Cc1csc(N/N=C/c2ccc(C(=O)O)cc2)n1 : not met
CCCCCCOc1ccc(/C=N/Nc2nccs2)cc1OC : met
CCOC(=O)Cc1csc(N/N=C/c2ccc(C(=O)O)cc2)n1 : met
COc1cc(/C=N/Nc2nc(C)c(C(C)=O)s2)ccc1OCc1ccccc1Cl : met

Quick check: does O=[N+]([O-])c1ccccc1/C=N/Nc1nccs1 have inhibition greater than or equal to 10%?
met

* * *

- Tested on: Mycobacterium tuberculosis H37Rv
- assay-name: Inhibition of recombinant Mycobacterium tuberculosis H37Rv C-terminal His6-tagged MetRS expressed in Escherichia coli BL21 (DE3) Star cells at 100 uM incubated for 30 mins followed by incubation with ATP, methionine, tRNA, iPPase for 10 mins and measured after 30 mins by BIOMOL Green reagent based plate reader analysis relative to control
inhibition vs 90%: at or above is Fulfilled, below is Not fulfilled.

CCOC(=O)Cc1csc(N/N=C/c2ccc(C(=O)O)cc2)n1 : Not fulfilled
CCOC(=O)c1sc(N/N=C/c2ccccc2Br)nc1C : Fulfilled
O=[N+]([O-])c1ccccc1/C=N/Nc1nccs1 : Not fulfilled
O=[N+]([O-])c1cc(/C=N/Nc2nc(-c3ccccc3)cs2)ccc1O : Not fulfilled
CCc1ccc(/C=N/Nc2nc(-c3cccc([N+](=O)[O-])c3)cs2)cc1 : Not fulfilled
COc1ccc(OC)c(/C=N/Nc2nc(-c3cccnc3)cs2)c1 : Fulfilled

Quick check: does COc1cc(/C=N/Nc2nccs2)cc(Br)c1OCc1ccccc1 have inhibition greater than or equal to 90%?
Fulfilled

Quick check: does CCOC(=O)c1sc(N/N=C/c2cccc(O)c2)nc1C have inhibition greater than or equal to 90%?
Not fulfilled

Quick check: does COc1cccc(/C=N/Nc2nc(C)cs2)c1OC have inhibition greater than or equal to 90%?
Not fulfilled

Quick check: does CCOC(=O)c1sc(N/N=C/c2cc(Br)c(O)c(Br)c2)nc1C have inhibition greater than or equal to 90%?
Not fulfilled

* * *

- Tested on: Saccharomyces cerevisiae
- assay-name: Inhibition of yeast inorganic pyrophosphatase assessed as inhibition of BIOMOL-Green signal using inorganic pyrophosphate as substrate at 50 uM incubated for 10 mins in MtbMetRS reaction buffer and measured after 30 mins by BIOMOL-Green reagent based plate reader analysis
endpoint-label: inhibition

COC(=O)c1sc(N/N=C/c2ccc(Br)cc2)nc1C : < 35%
COc1cc(/C=N/Nc2nc(C)c(C(C)=O)s2)ccc1OCc1ccccc1Cl : < 35%
CCOC(=O)c1sc(N/N=C/c2ccc(Br)cc2)nc1C : < 35%
COc1cc(/C=N/Nc2nccs2)ccc1OC(=O)c1ccc(Cl)cc1Cl : < 35%
COc1cc(/C=N/Nc2nccs2)ccc1OCc1ccccc1Cl : < 35%
Cc1sc(N/N=C/c2cccc(O)c2)nc1-c1ccccc1 : < 35%
COc1cc(/C=N/Nc2nccs2)cc(Br)c1OCc1ccccc1 : < 35%
O=[N+]([O-])c1cc(/C=N/Nc2nc(-c3ccccc3)cs2)ccc1O : < 35%
CN(C)c1ccc(/C=N/Nc2nc(-c3ccccc3)cs2)cc1 : < 35%

# ---- query compound ----
What value of measured inhibition is listed for COc1cc(/C=N/Nc2nc(-c3ccc(Br)cc3)cs2)cc([N+](=O)[O-])c1O ?
< 35%

* * *

- assay-target: Leucine--tRNA ligase (Mycobacterium tuberculosis (strain ATCC 25618 / H37Rv)) (UniProt P9WFV1)
- Sequence (whole entry): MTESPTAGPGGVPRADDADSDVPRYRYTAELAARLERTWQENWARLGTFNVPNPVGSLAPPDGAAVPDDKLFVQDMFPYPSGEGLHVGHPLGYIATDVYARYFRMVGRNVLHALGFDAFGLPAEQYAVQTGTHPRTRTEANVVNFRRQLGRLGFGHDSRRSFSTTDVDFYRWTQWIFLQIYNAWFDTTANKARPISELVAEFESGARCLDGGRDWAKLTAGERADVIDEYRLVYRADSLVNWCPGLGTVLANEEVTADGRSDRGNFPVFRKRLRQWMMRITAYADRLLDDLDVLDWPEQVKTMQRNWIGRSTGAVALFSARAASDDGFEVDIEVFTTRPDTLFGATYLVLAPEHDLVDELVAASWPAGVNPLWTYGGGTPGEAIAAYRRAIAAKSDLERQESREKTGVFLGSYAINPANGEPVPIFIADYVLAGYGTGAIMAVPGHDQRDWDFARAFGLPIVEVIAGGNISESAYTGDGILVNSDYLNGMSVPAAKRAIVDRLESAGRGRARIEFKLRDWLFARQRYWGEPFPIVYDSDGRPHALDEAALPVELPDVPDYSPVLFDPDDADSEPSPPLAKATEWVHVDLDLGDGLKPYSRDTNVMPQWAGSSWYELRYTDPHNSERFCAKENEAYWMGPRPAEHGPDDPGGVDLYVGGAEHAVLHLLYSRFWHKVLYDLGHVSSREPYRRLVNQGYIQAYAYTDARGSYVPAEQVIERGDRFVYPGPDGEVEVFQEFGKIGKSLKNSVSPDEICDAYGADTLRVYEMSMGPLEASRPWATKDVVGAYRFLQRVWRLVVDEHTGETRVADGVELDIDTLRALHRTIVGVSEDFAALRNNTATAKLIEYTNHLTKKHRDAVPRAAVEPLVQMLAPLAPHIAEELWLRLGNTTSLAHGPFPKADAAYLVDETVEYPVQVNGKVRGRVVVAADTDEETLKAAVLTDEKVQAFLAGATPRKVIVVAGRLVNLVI
- assay-name: Inhibition of Mycobacterium tuberculosis LeuRS expressed in Escherichia coli Rosetta (DE3) cells at 100 uM incubated for 30 mins followed by incubation with ATP, leucine, tRNA, iPPase for 10 mins and measured after 30 mins by BIOMOL Green reagent based plate reader analysis relative to control
inhibition vs 60%: at or above is 1, below is -1.

Consider the following illustrative entries.
COc1cc(/C=N/Nc2nc(-c3ccc(Br)cc3)cs2)cc([N+](=O)[O-])c1O : 1
Oc1ccccc1/C=N/Nc1nc(-c2ccccc2)cs1 : -1
Cc1csc(N/N=C/c2cc(Br)ccc2O)n1 : -1
COc1cc(/C=N/Nc2nccs2)ccc1OC(=O)c1ccc(Cl)cc1Cl : 1
CCc1ccc(/C=N/Nc2nc(-c3cccc([N+](=O)[O-])c3)cs2)cc1 : -1
CCOC(=O)c1sc(N/N=C/c2ccccc2C(F)(F)F)nc1C : -1

Quick check: does COc1ccc(/C=N/Nc2nc(-c3ccc(F)cc3)cs2)cc1Br have inhibition greater than or equal to 60%?
1

Quick check: does O=[N+]([O-])c1cc(/C=N/Nc2nc(-c3ccccc3)cs2)ccc1O have inhibition greater than or equal to 60%?
-1

Quick check: does CCOC(=O)c1sc(N/N=C/c2ccccc2Br)nc1C have inhibition greater than or equal to 60%?
1

Quick check: does COC(=O)c1sc(N/N=C/c2ccc([N+](=O)[O-])cc2)nc1C have inhibition greater than or equal to 60%?
1

Quick check: does O=C(O)c1ccc(/C=N/Nc2nc(-c3ccc(Cl)cc3Cl)cs2)cc1 have inhibition greater than or equal to 60%?
1

Quick check: does COc1ccc(/C=N/Nc2nc(C)c(C)s2)cc1 have inhibition greater than or equal to 60%?
-1

Quick check: does COc1cc(/C=N/Nc2nccs2)ccc1OCc1ccccc1Cl have inhibition greater than or equal to 60%?
1

Quick check: does COc1cc(/C=N/Nc2nccs2)cc(Br)c1OCc1ccccc1 have inhibition greater than or equal to 60%?
-1

Quick check: does O=[N+]([O-])c1cccc(-c2csc(N/N=C/c3cccc(Oc4ccccc4)c3)n2)c1 have inhibition greater than or equal to 60%?
-1

Quick check: does COc1cccc(/C=N/Nc2nc(C)cs2)c1OC have inhibition greater than or equal to 60%?
-1

* * *

- Test system: Mycobacterium tuberculosis H37Rv
- assay-name: Inhibition of recombinant Mycobacterium tuberculosis H37Rv C-terminal His6-tagged MetRS expressed in Escherichia coli BL21 (DE3) Star cells at 100 uM incubated for 30 mins followed by incubation with ATP, methionine, tRNA, iPPase for 10 mins and measured after 30 mins by BIOMOL Green reagent based plate reader analysis relative to control
inhibition vs 50%: at or above is Met, below is Not met.

Consider the following illustrative entries.
COc1ccc(/C=N/Nc2nc(-c3ccc(F)cc3)cs2)cc1Br : Met
COc1cc(/C=N/Nc2nc(-c3ccc([N+](=O)[O-])cc3)cs2)cc([N+](=O)[O-])c1O : Met
CCOC(=O)c1sc(N/N=C/c2ccc(Br)cc2)nc1C : Met

Quick check: does CCOc1ccc(/C=N/Nc2nc(C)c(C(C)=O)s2)cc1 have inhibition greater than or equal to 50%?
Met

Quick check: does CCOC(=O)c1sc(N/N=C/c2ccc(C(=O)O)cc2)nc1C have inhibition greater than or equal to 50%?
Not met
